# Assay Target: T1, IIB-Fc:ALK7-Fc heterodimer (human ActRIIB ECD-Fc paired with human ALK7 ECD-Fc) (human, UniProt Q13705-1 19-134; Q8NER5-1 25-113)
# T1 construct: activin receptor type IIB (ActRIIB) extracellular domain, human, aa 19-134 of NP_001097.2; activin receptor-like kinase 7 (ALK7) extracellular domain, human, aa 25-113 of NP_660302.2; copies: 1 + 1
# T1 sequence (Q13705 19-134, chain 1 of 2): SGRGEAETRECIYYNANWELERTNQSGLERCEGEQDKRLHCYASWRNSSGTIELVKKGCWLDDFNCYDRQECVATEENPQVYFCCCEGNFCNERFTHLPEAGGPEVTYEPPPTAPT
# T1 sequence (Q8NER5 25-113, chain 2 of 2): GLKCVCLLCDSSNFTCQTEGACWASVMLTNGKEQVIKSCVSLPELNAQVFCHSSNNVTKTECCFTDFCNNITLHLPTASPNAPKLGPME
# Method: SPR; Biacore 8K, 37 °C; Fc-fusion receptor dimers captured by anti-human Fc antibody on a CM5 chip (100-150 RU); ligands injected in two-fold dilution series (300 s association, 600 s dissociation); HBS-EP+ supplemented with 350 mM NaCl and 0.5 mg/mL BSA; 1:1 Langmuir model with a term for mass transport
# Setup Conditions: both partners purified
kon: recorded values
Quantity Kind: kon (M⁻¹ s⁻¹)

• GDF11 (ligand, human, UniProt O95390 299-407, looked up, source: generated in house) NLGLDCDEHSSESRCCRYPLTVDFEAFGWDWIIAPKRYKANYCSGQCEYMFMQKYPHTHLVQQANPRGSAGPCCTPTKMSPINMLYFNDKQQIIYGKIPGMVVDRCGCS = 1.35e+07
• BMP6 (ligand, human, UniProt P22004 375-513, looked up, source: bought: R&D Systems) SASSRRRQQSRNRSTQSQDVARVSSASDYNSSELKTACRKHELYVSFQDLGWQDWIIAPKGYAANYCDGECSFPLNAHMNATNHAIVQTLVHLMNPEYVPKPCCAPTKLNAISVLYFDDNSNVILKKYRNMVVRACGCH = 5.9e+06
• activin B (ligand, human, UniProt P09529 293-407, looked up, source: generated in house) GLECDGRTNLCCRQQFFIDFRLIGWNDWIIAPTGYYGNYCEGSCPAYLAGVPGSASSFHTAVVNQYRMRGLNPGTVNSCCIPTKLSTMSMLYFDDEYNIVKRDVPNMIVEECGCA = 7.4e+06
• BMP10 (ligand, human, UniProt O95393 317-424, looked up, source: bought: R&D Systems) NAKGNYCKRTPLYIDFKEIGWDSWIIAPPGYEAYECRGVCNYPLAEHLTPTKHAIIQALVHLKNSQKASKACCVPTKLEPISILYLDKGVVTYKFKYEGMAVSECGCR = 4.45e+07

Entry source: paper PMC8443706
